- Test system: SU-DHL-4 cells
- procedure.details: Inhibitory effect on cell viability in SU-DHL-4 cell line (Test Example 1)
- Type: cell-based, human
- conditions: SU-DHL-4 cells, 72 hours, Cell Counting Kit-8; concentration showing 90% inhibition of cell viability; read-out: SU-DHL-4 Cell Viability Inhibition Rate IC90
Mark Y for IC90 under 10 nM, N if at or over.

{"columns": ["compound", "category"],
 "data": [
  ["CCC(=O)N1c2ccccc2[C@H](Nc2ccc(C(=O)NC3CN(C(=O)C4CCC(N[C@@H]5C[C@H](C)N(C(=O)CC)c6ccccc65)CC4)C3)cc2)C[C@@H]1C (relative stereo) [Compound 7n]", "N"],
  ["CCC(=O)N1c2ccccc2[C@H](Nc2ccc(C(=O)NCCCNC(=O)c3ccc(C4=N[C@@H](CC(=O)OCCO)c5nnc(C)n5-c5sc(C)c(C)c54)cc3)cc2)C[C@@H]1C [Compound 13g]", "Y"],
  ["CCC(=O)N1c2ccccc2[C@H](Nc2ccc(C(=O)N3C[C@H]4C[C@@H]3CN4C(=O)[C@H]3CC[C@H](N[C@@H]4C[C@H](C)N(C(=O)CC)c5ccccc54)CC3)cc2)C[C@@H]1C [Compound 8p]", "N"],
  ["CCC(=O)N1c2ccccc2[C@H](Nc2ccc(NC(=O)c3cccc(NC(=O)c4ccc(N[C@@H]5C[C@H](C)N(C(=O)CC)c6ccccc65)cc4)c3)cc2)C[C@@H]1C (relative stereo) [Compound 2j]", "Y"],
  ["Cc1sc2c(c1C)C(c1ccc(NC(=O)CNC(=O)c3ccc(C4=N[C@@H](CC(=O)OC(C)(C)C)c5nnc(C)n5-c5sc(C)c(C)c54)cc3)cc1)=N[C@@H](CC(=O)OC(C)(C)C)c1nnc(C)n1-2 [Compound 2b]", "Y"]
]}

###

- System: SU-DHL-4 cells
- procedure.details: Inhibitory effect on cell viability in SU-DHL-4 cell line (Test Example 1)
- Assay type: cell-based, human
- conditions: SU-DHL-4 cells, 72 hours, Cell Counting Kit-8; concentration showing 90% inhibition of cell viability; read-out: SU-DHL-4 Cell Viability Inhibition Rate IC90
The entries below are paired with their reported IC90.
measured.property: IC90 (nM)

{"columns": ["compound", "unit.name", "comparison.sign", "measurement"],
 "data": [
  ["CCC(=O)N1c2ccccc2[C@H](Nc2ccc(C(=O)c3cnc4n3CCN(C(=O)C3CCC(N[C@@H]5C[C@H](C)N(C(=O)CC)c6ccccc65)CC3)C4)cc2)C[C@@H]1C (relative stereo)", "nM", "=", 0.33],
  ["Cc1sc2c(c1C)C(c1ccc(Cl)cc1)=N[C@@H](CC(=O)NCCOCCOCCOCCOCCOCCOCCOCCNC(=O)C[C@@H]1N=C(c3ccc(Cl)cc3)c3c(sc(C)c3C)-n3c(C)nnc31)c1nnc(C)n1-2 [compound 2, reference compound]", "nM", ">", 10000],
  ["CCC(=O)N1c2ccccc2[C@H](Nc2ccc(C(=O)NCCCNC(=O)c3ccc(Cn4c(C(=O)OC)cc5c4CCCC5=O)cc3)cc2)C[C@@H]1C [Compound 15g]", "nM", "=", 5.03]
]}

###

- System: SU-DHL-4 cells
- procedure.details: Inhibitory effect on cell viability in SU-DHL-4 cell line (Test Example 1)
- Assay type: cell-based, human
- conditions: SU-DHL-4 cells, 72 hours, Cell Counting Kit-8; concentration showing 90% inhibition of cell viability; read-out: SU-DHL-4 Cell Viability Inhibition Rate IC90
- Excerpt: […]
# strict inequality: IC90 < 0.9 nM yields class 1, everything else yields class 0

{"columns": ["compound", "category"],
 "data": [
  ["CCC(=O)N1c2ccccc2[C@H](Nc2ccc(NC(=O)CNC(=O)C3CCC(N[C@@H]4C[C@H](C)N(C(=O)CC)c5ccccc54)CC3)cc2)C[C@@H]1C (relative stereo) [Compound 7k]", "class 1"],
  ["CCC(=O)N1c2ccccc2[C@H](Nc2ccc(C(=O)NCCCNC(=O)c3ccc(C4=NCc5nnc(C)n5-c5sc(C)c(C)c54)cc3)cc2)C[C@@H]1C (relative stereo) [Compound 1f]", "class 0"],
  ["CCC(=O)N1c2ccccc2[C@H](Nc2ccc(NC(=O)COCC(=O)NC3CCC(N[C@@H]4C[C@H](C)N(C(=O)CC)c5ccccc54)CC3)cc2)C[C@@H]1C (some centres unmarked) [Compound 8b]", "class 0"],
  ["CCC(=O)N1c2ccccc2[C@H](Nc2ccc(C(=O)NCC(=O)CNC(=O)C3CCC(N[C@@H]4C[C@H](C)N(C(=O)CC)c5ccccc54)CC3)cc2)C[C@@H]1C (relative stereo) [Compound 7r]", "class 1"]
]}
